Hi there, I'd appreciate the recorded Hemolysis (%) for every entry that follows.
# Tested on: complement activation in factor B-depleted human sera
# Type: biochemical
Square brackets hold non-standard residues; d marks the D form. Peptide text beside a SMILES is read from it. Sar = CNCC(=O)O
Numbers only, in %.

Completed entries (count: 4):
(Q) Input CC[C@H](C)[C@H](N)C(=O)N(C)CC(=O)N[C@@H](CC(C)C)C(=O)N[C@H](C(=O)N[C@@H](CC(C)C)C(=O)N[C@@H](CCC(=O)O)C(=O)N1CCC[C@H]1C(=O)N[C@H](C(=O)N[C@@H](CS)C(=O)N[C@@H](CS)C(=O)N[C@@H](CCC(N)=O)C(=O)N[C@@H](CCC(=O)O)C(=O)N[C@@H](CCCNC(=N)N)C(=O)N[C@@H](C)C(=O)N[C@@H](C)C(=O)O)[C@@H](C)CC)[C@@H](C)CC [PA-A2Sar] (H-I[Sar]LILEPICCQERAA-OH; N-terminus and C-terminus assumed) , output reported Hemolysis (%).
(A) 37.72

(Q) Input CC[C@H](C)[C@H](N)C(=O)N[C@@H](C)C(=O)N[C@@H](CC(C)C)C(=O)N[C@H](C(=O)N[C@@H](CC(C)C)C(=O)N[C@@H](CCC(=O)O)C(=O)N1CCC[C@H]1C(=O)N[C@H](C(=O)N(C)CC(=O)N[C@@H](CS)C(=O)N(C)CC(=O)N[C@@H](CCC(=O)O)C(=O)N[C@@H](CCCNC(=N)N)C(=O)N[C@@H](C)C(=O)N[C@@H](C)C(=O)O)[C@@H](C)CC)[C@@H](C)CC [Peptide Q11SarC9Sar] (H-IALILEPI[Sar]C[Sar]ERAA-OH) , output reported Hemolysis (%).
(A) 15.42

(Q) Input CC[C@H](C)[C@H](N)C(=O)N[C@@H](C)C(=O)N[C@@H](CC(C)C)C(=O)N[C@H](C(=O)N[C@@H](CC(C)C)C(=O)N[C@@H](CCC(=O)O)C(=O)N1CCC[C@H]1C(=O)N[C@H](C(=O)N(C)CC(=O)N[C@@H](CS)C(=O)N[C@@H](CCC(N)=O)C(=O)N[C@@H](CCC(=O)O)C(=O)N[C@@H](CCCNC(=N)N)C(=O)N(C)CC(=O)N[C@@H](C)C(=O)O)[C@@H](C)CC)[C@@H](C)CC [Peptide A14SarC9Sar] (H-IALILEPI[Sar]CQER[Sar]A-OH) , output reported Hemolysis (%).
(A) 14.73

(Q) Input CC[C@H](C)[C@H](N)C(=O)N[C@@H](C)C(=O)N[C@@H](CC(C)C)C(=O)N[C@H](C(=O)N[C@@H](CC(C)C)C(=O)N[C@@H](CCC(=O)O)C(=O)N1CCC[C@H]1C(=O)N(C)CC(=O)N[C@@H](CS)C(=O)N[C@@H](CS)C(=O)N[C@@H](CCC(N)=O)C(=O)N[C@@H](CCC(=O)O)C(=O)N[C@@H](CCCNC(=N)N)C(=O)N[C@@H](C)C(=O)N[C@@H](C)C(=O)O)[C@@H](C)CC [PA-I8Sar, IALILEP(Sar)CCQERAA] , output reported Hemolysis (%).
(A) 33.92

***
(Q) Input CC[C@H](C)[C@H](N)C(=O)N[C@@H](C)C(=O)N[C@@H](CC(C)C)C(=O)N[C@H](C(=O)N[C@@H](CC(C)C)C(=O)N[C@@H](CCC(=O)O)C(=O)N(C)CC(=O)N[C@H](C(=O)N[C@@H](CS)C(=O)N[C@@H](CS)C(=O)N[C@@H](CCC(N)=O)C(=O)N[C@@H](CCC(=O)O)C(=O)N(C)CC(=O)N[C@@H](C)C(=O)N[C@@H](C)C(=O)O)[C@@H](C)CC)[C@@H](C)CC [Peptide R13SarP7Sar, IALILE(Sar)ICCQE(Sar)AA] (H-IALILE[Sar]ICCQE[Sar]AA-OH) , output reported Hemolysis (%).
(A) 26.35
